Tested on: LXRb:RXRa (NR concentration 270 nM, RXRa partner concentration 90 nM)
Test: PBM binding z-score (relative to random genomic background probes); higher = stronger binding; sequences stand for … in GC…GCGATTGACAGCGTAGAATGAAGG

| residue_string | PBM binding z-score |
| --- | --- |
| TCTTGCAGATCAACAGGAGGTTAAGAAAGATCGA | 0.679 |
| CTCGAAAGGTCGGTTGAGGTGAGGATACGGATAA | 1.43 |
| ACTTACGGGTCAACGAGGATATAGCACGCGTATA | 3.61 |
| TAGCCTAGGTCATTCAGCGGCCAGTATAGAAAGC | 2.68 |
| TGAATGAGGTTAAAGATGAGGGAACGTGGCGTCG | 1.29 |
| TCTCGAAGGACACGAAGGTCAGAGCTTTCCAGAG | 1.03 |
| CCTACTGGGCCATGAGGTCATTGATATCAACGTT | 3.24 |
| TCAGACAGGTGAAGGTAAATCAGGTACGCAGTCG | 1.11 |
| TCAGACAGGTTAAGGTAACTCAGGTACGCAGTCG | 1.79 |
| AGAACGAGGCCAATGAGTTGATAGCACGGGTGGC | -0.817 |
| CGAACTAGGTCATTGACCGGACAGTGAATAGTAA | 3.37 |
| AGTCAAAGTTCAGGACGAGGTAACGGAAAGCACG | 1.77 |
| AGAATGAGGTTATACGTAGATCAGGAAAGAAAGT | 1.76 |
| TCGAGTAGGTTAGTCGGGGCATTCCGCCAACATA | 0.444 |
| CCCGACAGGTGAAAGGTAACTCAGTCTGGTACGC | 0.876 |
| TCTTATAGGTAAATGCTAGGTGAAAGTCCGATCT | 1.11 |
| CATACAGGGTCAGCTAGGCCAGAGTAGGGACGGC | 2.27 |
| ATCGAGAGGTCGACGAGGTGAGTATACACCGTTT | 1.65 |
| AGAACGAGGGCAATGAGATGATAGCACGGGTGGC | -0.282 |
| TCTATTAGTTGATTAGGGCAATCGAAACAGCGGA | 0.766 |
| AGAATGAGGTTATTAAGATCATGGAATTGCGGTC | 1.29 |
| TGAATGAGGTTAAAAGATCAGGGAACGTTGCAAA | 1.55 |
| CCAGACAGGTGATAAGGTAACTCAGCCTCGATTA | 0.157 |
| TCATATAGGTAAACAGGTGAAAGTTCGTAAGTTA | 1.4 |
| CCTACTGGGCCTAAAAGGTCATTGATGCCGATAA | 4.61 |
| TAATATAGGTAAATGCTAGGTGAAAGTCCGATCT | 0.477 |
| GCTAGCAGGCCATTTGCGTCACTCAATGACGGGC | -1.15 |
| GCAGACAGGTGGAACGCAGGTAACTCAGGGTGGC | -0.84 |
| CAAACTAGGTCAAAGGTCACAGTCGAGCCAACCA | 7.06 |
| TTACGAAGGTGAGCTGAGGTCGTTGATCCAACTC | 0.8 |

Taken from the supplement of paper PMC6555819.
